Cited source: patent US8501732B2

Kindly state IC50 for each of the entries shown.
# test system: JNK1 (Homo sapiens (Human), UniProt P45983)
# Sequence (P45983 whole entry): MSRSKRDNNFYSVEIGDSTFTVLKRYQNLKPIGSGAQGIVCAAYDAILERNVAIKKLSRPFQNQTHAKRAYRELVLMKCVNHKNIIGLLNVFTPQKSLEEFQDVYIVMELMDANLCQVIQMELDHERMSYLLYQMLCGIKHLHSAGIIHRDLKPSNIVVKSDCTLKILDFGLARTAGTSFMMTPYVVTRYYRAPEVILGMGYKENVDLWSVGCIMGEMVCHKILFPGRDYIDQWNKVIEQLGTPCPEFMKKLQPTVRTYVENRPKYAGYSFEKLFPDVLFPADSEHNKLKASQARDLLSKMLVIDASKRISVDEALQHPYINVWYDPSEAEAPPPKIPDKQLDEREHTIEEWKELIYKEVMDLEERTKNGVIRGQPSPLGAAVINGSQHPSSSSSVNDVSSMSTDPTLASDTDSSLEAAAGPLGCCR
# procedure details: In Vitro JNK1 Assay (TR-FRET, phosphorylation of GST-c-Jun)
# Assay type: biochemical
# condition summary: 0.2 nM active JNK1 kinase, 26.7 nM GST-c-Jun, 2 μM ATP, 30 min at room temperature
// return numeric value only (unit: nM, not printed)

Req: Kindly indicate its recorded IC50. Item: COC(=O)c1c(CNC(=O)C(C)C)c(=O)c2ccc(Cl)cc2n1-c1ccccc1
Resp: 200

Req: Kindly indicate its recorded IC50. Item: O=C(NCc1cn(-c2ccccc2)c2cc(Cl)ccc2c1=O)c1ccc(C(=O)NC2C3CC4CC2CC(O)(C4)C3)cc1 (stereo not shown)
Resp: 52

Req: Kindly indicate its recorded IC50. Item: CN1CCN(c2ncc(C(=O)NCc3cn(-c4ccccc4)c4cc(Cl)ccc4c3=O)s2)CC1
Resp: 40

Req: Kindly indicate its recorded IC50. Item: O=C(NCc1c(-c2ncco2)n(-c2ccccc2)c2cc(Cl)ccc2c1=O)c1ccnc(N2CCOCC2)c1
Resp: 7

Req: Kindly indicate its recorded IC50. Item: CN1CCN(c2ccc(C(=O)NCc3cn(-c4ccccc4)c4cc(Cl)ccc4c3=O)cn2)CC1
Resp: 250

Req: Kindly indicate its recorded IC50. Item: COC(=O)c1c(CNC(=O)c2ccccc2)c(=O)c2ccc(Cl)cc2n1-c1ccccc1
Resp: 12

Req: Kindly indicate its recorded IC50. Item: CN(C)C(=O)c1c(CNC(=O)c2ccc3ncsc3c2)c(=O)c2ccc(Cl)cc2n1-c1ccccc1
Resp: 66

Req: Kindly indicate its recorded IC50. Item: O=C(NCc1cn(-c2ccccc2)c2cc(Cl)ccc2c1=O)c1ccc(=O)n(Cc2ccccc2)c1
Resp: 380

Req: Kindly indicate its recorded IC50. Item: CN(C)C(=O)c1c(CNC(=O)c2ccc(N3CCOCC3)nc2)c(=O)c2ccc(Cl)cc2n1-c1ccccc1
Resp: 35

Req: Kindly indicate its recorded IC50. Item: COC(=O)c1c(CNC(=O)c2ccncc2)c(=O)c2ccc(Cl)cc2n1-c1ccccc1
Resp: 12

Req: Kindly indicate its recorded IC50. Item: O=C(NCc1cn(-c2ccccc2)c2cc(Cl)ccc2c1=O)NC1CCCC1
Resp: 920

Req: Kindly indicate its recorded IC50. Item: O=C(NCc1cn(-c2ccccc2F)c2cc(F)ccc2c1=O)c1ccc(Cl)nc1
Resp: 150

Req: Kindly indicate its recorded IC50. Item: COC(=O)c1c(CNC(=O)c2ccc(-c3nnn(C)n3)cc2)c(=O)c2ccc(C(F)(F)F)nc2n1-c1ccccc1
Resp: 38

Req: Kindly indicate its recorded IC50. Item: O=C(NCc1cn(-c2ccccc2)c2cc(Cl)ccc2c1=O)Nc1ccccc1
Resp: 550

Req: Kindly indicate its recorded IC50. Item: Cn1ccc(C(=O)NCc2cn(-c3ccccc3)c3cc(Cl)ccc3c2=O)cc1=O
Resp: 670

Req: Kindly indicate its recorded IC50. Item: O=c1c(CNc2nc3ccccc3[nH]2)cn(-c2ccccc2)c2cc(Cl)ccc12
Resp: 850

Req: Kindly indicate its recorded IC50. Item: COC(=O)c1ccc(C(=O)NCc2c(C(=O)OC)n(-c3ccccc3)c3cc(Cl)ccc3c2=O)cc1
Resp: 6

Req: Kindly indicate its recorded IC50. Item: COc1cccc(Cn2ccc(C(=O)NCc3cn(-c4ccccc4)c4cc(Cl)ccc4c3=O)cc2=O)c1
Resp: 72

Req: Kindly indicate its recorded IC50. Item: CNC(=O)C1CCN(c2ccc(C(=O)NCc3cn(-c4ccccc4)c4cc(Cl)ccc4c3=O)cn2)CC1
Resp: 27

Req: Kindly indicate its recorded IC50. Item: COC(=O)c1c(CNC(=O)c2ccc(N(C)C)cc2)c(=O)c2ccc(OC)cc2n1-c1ccccc1
Resp: 180

Req: Kindly indicate its recorded IC50. Item: O=C(NCc1cn(-c2ccccc2)c2cc(Cl)ccc2c1=O)c1ccc2cc[nH]c2c1
Resp: 140

Req: Kindly indicate its recorded IC50. Item: O=C(NCc1c(-c2ncco2)n(-c2ccccc2)c2cc(Cl)ccc2c1=O)c1ccc(N2CCOCC2)nc1
Resp: 9

Req: Kindly indicate its recorded IC50. Item: O=C(NCc1cn(-c2ccccc2)c2cc(Cl)ccc2c1=O)c1ccn(Cc2ccc(Cl)cc2)c(=O)c1
Resp: 44

Req: Kindly indicate its recorded IC50. Item: COC(=O)c1c(CNC(=O)c2cccc(Cl)c2)c(=O)c2ccc(OC)cc2n1-c1ccccc1
Resp: 26

Req: Kindly indicate its recorded IC50. Item: O=C(NCc1cn(-c2ccccc2F)c2cc(F)ccc2c1=O)c1ccc(N2CCS(=O)(=O)CC2)nc1
Resp: 100

Req: Kindly indicate its recorded IC50. Item: Cn1cc(C(=O)NCc2c(-c3ncco3)n(-c3ccccc3)c3ncccc3c2=O)cn1
Resp: 47

Req: Kindly indicate its recorded IC50. Item: CN(C)C(=O)c1c(CNC(=O)c2ccc(F)cc2)c(=O)c2ccc(Cl)cc2n1-c1ccccc1
Resp: 240

Req: Kindly indicate its recorded IC50. Item: COC(=O)c1c(CNc2ncnc3ccccc23)c(=O)c2ccc(Cl)cc2n1-c1ccccc1
Resp: 60

Req: Kindly indicate its recorded IC50. Item: O=C(NCc1cn(-c2ccccc2)c2cc(Cl)ccc2c1=O)c1cccc(F)c1F
Resp: 1700

Req: Kindly indicate its recorded IC50. Item: N#C/N=C(/NCc1cn(-c2ccccc2)c2cc(Cl)ccc2c1=O)Nc1ccccc1
Resp: 2700

Req: Kindly indicate its recorded IC50. Item: O=C(NCc1cn(-c2ccccc2)c2cc(Cl)ccc2c1=O)c1ccn(Cc2ccccc2)c(=O)c1
Resp: 13

###

# System: phospho(Ser63)-c-jun in HK-2 cells
# procedure details: Cell-Based Assay for JNK Inhibitors (in-cell ELISA, phospho(Ser63)-c-jun after TNFα)
# condition summary: HK-2 cells (human proximal tubule cells), 60 minutes compound, then 10 ng/mL TNFα for 30 minutes
quantity: EC50
The reply must contain the numeric value and, after it, the unit.

Req: Kindly indicate its recorded EC50. Item: CS(=O)(=O)C1CCN(c2ccc(C(=O)NCc3cn(-c4ccccc4)c4cc(Cl)ccc4c3=O)cn2)CC1
Resp: 39 µM

Req: Kindly indicate its recorded EC50. Item: COC(=O)c1c(CNC(=O)C2CCN(C(C)=O)CC2)c(=O)c2ccc(Cl)cc2n1-c1ccccc1
Resp: 100 µM

Req: Kindly indicate its recorded EC50. Item: O=C(NCc1cn(-c2ccccc2)c2cc(Cl)ccc2c1=O)c1ccc2scnc2c1
Resp: 25 µM

Req: Kindly indicate its recorded EC50. Item: COC(=O)c1c(CNC(=O)c2ccc(OC)cc2)c(=O)c2ccc(OC)cc2n1-c1ccccc1
Resp: 8.9 µM

###

# test system: JNK1 (Homo sapiens (Human), UniProt P45983)
# procedure details: In Vitro JNK1 Assay (TR-FRET, phosphorylation of GST-c-Jun)
# Type: biochemical
# condition summary: 0.2 nM active JNK1 kinase, 26.7 nM GST-c-Jun, 2 μM ATP, 30 min at room temperature
# Protocol: Phosphorylation of GST-c-Jun protein (amino acid residues 1-79) was measured as JNK1 activity. […] The reaction buffer contained 50 mM HEPES, pH […], 1 mM DTT, 0.1 mM Na3VO4 and 0.2 mg/mL BSA. […] Time-resolved Fluorescence Resonance Energy Transfer (TR-FRET) signals were measured 1 hr. later on the EnVision reader (Perkin Elmer). Compound potency was assessed at 10 serially diluted concentrations. […]
Kindly state pIC50 for each of the entries shown.
// pIC50: -log10(molar conc.)

Req: Kindly indicate its recorded pIC50. Item: COC(=O)c1c(CNC(=O)c2ccc3cc[nH]c3c2)c(=O)c2ccc(Cl)cc2n1-c1ccccc1
Resp: 7.82

Req: Kindly indicate its recorded pIC50. Item: O=C(NCc1cn(-c2ccccc2)c2cc(Cl)ccc2c1=O)N1CCN(c2ccccc2)CC1
Resp: 6.92

Req: Kindly indicate its recorded pIC50. Item: COC(=O)c1c(CNC(=O)c2ccc(-c3csc(C)n3)cc2)c(=O)c2ccc(Cl)cc2n1-c1ccccc1
Resp: 7.51

Req: Kindly indicate its recorded pIC50. Item: O=C(NCc1cn(-c2ccccc2F)c2cc(F)ccc2c1=O)c1ccc(N2CCC(CO)CC2)nc1
Resp: 7.28

Req: Kindly indicate its recorded pIC50. Item: Cn1cc(C(=O)NCc2cn(-c3ccccc3F)c3cc(F)ccc3c2=O)cn1
Resp: 6.92

Req: Kindly indicate its recorded pIC50. Item: COC(=O)c1c(CNC(=O)c2cccc(OC)c2)c(=O)c2ccc(Cl)cc2n1-c1ccccc1
Resp: 8.10

Req: Kindly indicate its recorded pIC50. Item: O=C(NCc1cn(-c2ccccc2)c2cc(Cl)ccc2c1=O)c1ccc(NC2CCOCC2)nc1
Resp: 7.31

Req: Kindly indicate its recorded pIC50. Item: COC(=O)c1c(CNC(=O)c2ccccc2)c(=O)c2ccccc2n1-c1ccccc1
Resp: 7.41

Req: Kindly indicate its recorded pIC50. Item: COC(=O)c1c(CNC(=O)c2ccc(Cl)c(Cl)c2)c(=O)c2ccc(C(F)(F)F)nc2n1-c1ccccc1
Resp: 6.77

Req: Kindly indicate its recorded pIC50. Item: CNC(=O)c1ccc(C(=O)NCc2c(C(=O)OC)n(-c3ccccc3)c3cc(Cl)ccc3c2=O)cc1
Resp: 7.96

Req: Kindly indicate its recorded pIC50. Item: O=C(NCc1cn(-c2ccccc2)c2cc(Cl)ccc2c1=O)NC1CCN(C(=O)c2ccccc2)CC1
Resp: 6.72

Req: Kindly indicate its recorded pIC50. Item: COC(=O)c1c(CNC(=O)c2cccnc2)c(=O)c2ccc(Cl)cc2n1-c1ccccc1
Resp: 7.89

Req: Kindly indicate its recorded pIC50. Item: COC(=O)c1c(CNC(=O)c2ccc(N3CCOCC3)cc2)c(=O)c2ccc(Cl)cc2n1-c1ccccc1
Resp: 7.80

Req: Kindly indicate its recorded pIC50. Item: O=C(NCc1cn(-c2ccccc2)c2cc(Cl)ccc2c1=O)N1CCCCC1
Resp: 5.77

Req: Kindly indicate its recorded pIC50. Item: COC(=O)c1c(CNC(=O)c2ccc(Cl)cc2)c(=O)c2ccc(Cl)cc2n1-c1ccccc1
Resp: 7.82

Req: Kindly indicate its recorded pIC50. Item: O=C(NCc1cn(-c2ccccc2)c2cc(Cl)ccc2c1=O)c1ccc(N2CCC(CCO)CC2)nc1
Resp: 7.77
